Numbers sourced from PubChem BioAssay (NCI).

# Tested on: HCT-15 colon
# Assay Procedure: NCI-60 one-dose screen, 48 h
# Condition Description: 10 µM unless noted
This is part of a sample that, as a whole, favours compounds with a hit. Of some 83,000 tested, about 20% had one in any assay. Active and inactive are the calls of the source. How the source made its calls: active means growth percent below 10; inactive means the rest.
Outcomes: active, inactive

>>> print(df.to_string())
                                 smiles_str     label
0      O=c1[nH]c(-c2cccc(F)c2)cc2cc(F)ccc12  inactive
1  COc1ccc(NC(=O)Nc2ccc(Nc3nc(C)cc(Nc4ccc(C)cc4)n3)cc2)cc1    active
2  CS(=O)(=O)O[C@@H]1C(=O)N(c2cc3c4ccccc4ccc3c3ccccc23)[C@H]1c1ccc(F)cn1  inactive
3  COc1ccc(/C=C/C(=O)C(CC2CCC2)C(=O)/C=C/c2ccc(OC)c(OC)c2)cc1OC    active

====

# Tested on: OVCAR-8 ovarian
# Assay Procedure: NCI-60 one-dose screen, 48 h
# Condition Description: 10 µM unless noted
The panel holds about 83,000 compounds, 20% with a hit somewhere; the sample as a whole holds those more often. Activity calls are given as the source filed them. The calls were made as follows: active = growth percent below 10; inactive = the rest.
Outcome codes: Yes for active, No for inactive

In [3]: df
Out[3]:
                                    molecule  label
 0  OCCNc1nc(NCCO)nc(Nc2ccc(C3=NN(c4cc(Cl)cc(Cl)c4)C(c4ccc(Cl)cc4)C3)cc2)n1 (configuration not stated)     No
 1  C=C(C)[C@@H]1CCC=C2CC[C@]3(C)[C@H](CC[C@@H]4[C@@]5(C)CCCNC(C)(C)[C@@H]5CC[C@]43C)[C@H]21    Yes
 2    O=C1NCc2ccc3c(-c4cccc(Cl)c4)c[nH]c3c21     No
 3  Cc1c(C(=O)Nc2nc3ccccc3[nH]2)cnn1-c1ccccn1     No
 4  CCOC(=O)c1sc(/N=C2\NC(=O)/C(=C/c3ccc(N4CCN(C)CC4)cc3)S2)nc1C     No
 5  COc1ccc(/C=C/C(=O)C(CC2CCC2)C(=O)/C=C/c2ccc(OC)c(OC)c2)cc1OC    Yes
 6  Cc1cc(C)nc(NS(=O)(=O)c2ccc(Nc3ccc4c5c(n(CCCN(C)C)c(=O)c4c3)-c3ccccc3C5=O)cc2)n1     No
 7  CCCCCCC/C=C/[C@H]1O[C@]23C(=O)C[C@@]4(C[C@@H](OC5OC(CO)C(O)C(O)C5O)C[C@@H]4[C@H]2C=C1C)OC3=O (some centres not stated)     No
 8  C[C@@H]1C(=O)[C@@H]2C[C@@H](O)[C@@H](O)C[C@]2(C)[C@H]2CC[C@@]3(C)C(=C12)CC[C@@H]3[C@@](C)(O)[C@H](O)CCC(C)(C)O     No
 9  COC(=O)/C=C1\SC(=Nc2cccc(Cl)c2)N(CCc2c[nH]c3ccccc23)C1=O     No
10  CC(=O)O[C@@H]1C[C@]2(C)[C@H]3[C@H](O)C[C@@H]4C5=CC(C)(C)CC[C@]5(C)CC[C@@]4(C)[C@]3(C)CC[C@H]2C(C)(C)[C@H]1O     No
11  COc1cc(NC(=O)Nc2cnc(Nc3ccc(N4CCOCC4)cc3)nc2Oc2ccc(F)cc2)cc(OC)c1     No
12  COc1cc(-c2csc(NC(=O)Nc3cc(Cl)cc(Cl)c3)n2)cc(OC)c1OC    Yes
13  CC1CCCN(CCCCCOc2ccc3oc4ccccc4c(=O)c3c2)C1 (configuration not stated)     No
14    CCC[S@@](=O)c1ccc2nc(NC(=O)OC)[nH]c2c1     No
15  Cc1nccc2c3ccc(OCc4cn(-c5ccc(Br)cc5)nn4)cc3n(CC(C)C)c12     No
16  O=C(O)c1cn(C2CC2)c2cc(N3CCN(Cc4nnc(Nc5ccccc5)o4)CC3)c(F)cc2c1=O     No

====

# System: A498 renal
# Assay Procedure: NCI-60 one-dose screen, 48 h (100 = growth as untreated, 0 = no growth, -100 = all killed)
# Condition Description: 10 µM unless noted
The panel holds about 83,000 compounds, 20% with a hit somewhere; the sample as a whole holds those more often.
Collected growth values appear next to each entry.
Measured Parameter: growth (%)

In [3]: df
Out[3]:
                                 smiles_str  measured_parameter  measured
0         C/C(=N\NC(=O)c1ccncc1)c1ccc(N)cc1              growth      90.6
1  COC(=O)CCc1n(Cc2ccc3ccccc3c2)c2ccccc2[n+]1Cc1ccc2ccccc2c1              growth      8.46
2  COC(=O)c1ccc2c(c1)n(Cc1ccc3ccccc3c1)c[n+]2Cc1ccc2ccccc2c1              growth      80.5
3  NS(=O)(=O)c1ccc(-n2ncc(NC(=O)Nc3ccc(S(=O)(=O)Nc4nccs4)cc3)c2-c2ccccc2)cc1              growth       112
4     Nc1ccc2c(c1)C(=O)C(=O)c1c-2nc2ccccn12              growth     -19.3

====

# System: RXF 393 renal
# Assay Procedure: NCI-60 one-dose screen, 48 h (100 = growth as untreated, 0 = no growth, -100 = all killed)
# Condition Description: 10 µM unless noted
The panel holds about 83,000 compounds, 20% with a hit somewhere; the sample as a whole holds those more often.
This section presents molecules with their documented growth values.

Molecule	growth (%)
O=C1Nc2ccc(Br)cc2/C1=N\N=C/c1cn(Cc2ccccc2)c2ccccc12	58.4
C(=C\c1cn(-c2ccccc2)nc1-c1ccccc1)/c1nnc(-c2c[nH]c3ccccc23)o1	53.5
COc1ccc2c(c1)C1(C(=O)N2)C(C#N)=C(c2ccccc2)Nc2c1c(-c1ccccc1)nn2-c1ccccc1 (stereo unspecified)	64.2
COC(=O)/C=C/c1cc(OC)c2c(c1)[C@@H](C(=O)OC)[C@H](c1ccc(OC)c(OC)c1)O2	-12.2
COc1ccc(Cl)c([N+](=O)[O-])c1	108
C=C(C)[C@@H]1CC[C@]2(C(=O)OCCOCCOCC[P+](c3ccccc3)(c3ccccc3)c3ccccc3)CC[C@]3(C)[C@H](CC[C@@H]4[C@@]5(C)CC[C@H](C)C(C)(C)[C@@H]5CC[C@]43C)[C@@H]12	-85.3
Nc1c(C(=O)Nc2ccccn2)sc2nc3c(cc12)CCCC3	84.7
Nc1c(C(=O)Nc2ccccn2)sc2nc3c(cc12)C(=O)CCC3	1.88
Cc1c(Cl)cccc1NC(=O)c1sc2nc3c(cc2c1N)CN(Cc1ccccc1)CC3	68.8
COc1ccc(-c2cc(-c3nnc(SCC(=O)Nc4ccc(/C(C)=N\O)cc4)o3)c3ccccc3n2)cc1	106
c1ccc(-c2cn3ccnc3c(-c3ccc4c(c3)ncn4C3CCCCC3)n2)cc1	76.7
Cc1ccc(CS/C(=C\c2ccc([N+](=O)[O-])cc2)C(=O)c2ccc(F)cc2)cc1	100
O=C(O)c1cn(C2CC2)c2cc(N3CCN(C(=O)CSc4nnc(-c5ccc(Cl)cc5)n4-c4ccccc4)CC3)c(F)cc2c1=O	113
O=S(=O)(O)c1ccc(N=NSc2ccc3ccccc3c2)cc1	117
O=C(Nc1cc(=O)[nH]c(=O)[nH]1)C(Cl)Cl	106
O=C(/C(=C/c1ccc([N+](=O)[O-])cc1)SCc1ccc(Cl)cc1)c1ccc(F)cc1	92
Cc1cc(C)nc(NS(=O)(=O)c2ccc(Nc3ccc4c5c(n(CCCN(C)C)c(=O)c4c3)-c3ccccc3C5=O)cc2)n1	115
COc1ccc(C(=O)c2cc(F)c(F)c(OC)c2F)cc1OC(=O)CCl	69.7
COC(=O)CCc1n(Cc2ccc3ccccc3c2)c2ccccc2[n+]1Cc1ccc2ccccc2c1	23.7
O=C1c2ccccc2C(=O)c2c1oc1c2c(=O)[nH]c2ccc(Cl)cc21	-46.3
Cc1cc(C)c(NC(=O)c2sc3nc4c(cc3c2N)CCCCCC4)c(C)c1	65.8
O=C(NCc1ccccc1)c1ccc2c(c1)NC(=O)[C@@H]1CCCN21	109
COc1cc(/C=C/C(=O)/C=C/c2cc3ccc(Cl)cc3n(Cc3ccccc3)c2=O)ccc1O	-79.9
CCC[S@@](=O)c1ccc2nc(NC(=O)OC)[nH]c2c1	95.2
COc1cc(NCC(=O)Nc2cc(Nc3cccc(C(F)(F)F)c3)ncn2)c(Cl)c(OC)c1Cl	114
C=C1C(=O)O[C@H]2[C@H]1CC/C(COC(=O)CCCCCCC(=O)OC/C1=C/CC[C@@]3(C)O[C@H]3[C@H]3OC(=O)C(=C)[C@@H]3CC1)=C\CC[C@@]1(C)O[C@@H]21	-72.8
Cn1c2ccccc2c2c(OC(=O)c3ccccc3)c3c(nc21)-c1ccccc1C3	109
CCCn1c2cc(OCc3cn(-c4ccc(Br)cc4)nn3)ccc2c2ccnc(C)c21	51
O=C1C(Cl)=C(NCCCN(CCCNC2=C(Cl)C(=O)c3ccccc3C2=O)C2=C(Cl)C(=O)c3ccccc3C2=O)C(=O)c2ccccc21	85.3
COc1cc(/C=C/C(=O)c2cccs2)ccc1OCc1ccc(Cl)nc1	94.9
N#Cc1nc(-c2ccccc2)oc1S(=O)(=O)NCC(c1ccc(Cl)cc1)N1CCCCC1 (stereo unspecified)	101
CCn1cc(C(=O)O)c(=O)c2cc(F)c(N3CCN(CC(=O)Nc4ccc(/C(C)=N/OC)cc4)CC3)cc21	100
COC(=O)/C=C1\SC(=Nc2cccc(OC)c2)N(CCc2c[nH]c3ccccc23)C1=O	49.2
COC(=O)c1ccc2c(c1)n(Cc1ccc3ccccc3c1)c[n+]2Cc1ccc2ccccc2c1	69.3
Cc1c(C(=O)Nc2nc3ccccc3[nH]2)cnn1-c1ccccn1	105
C[C@@H]1C(=O)[C@@H]2C[C@@H](O)[C@@H](O)C[C@]2(C)[C@H]2CC[C@@]3(C)C(=C12)CC[C@@H]3[C@@](C)(O)[C@H](O)CCC(C)(C)O	116
